Give measured growth for each item. Keep answers brief.
System: MDA-MB-435 melanoma
Assay: NCI-60 one-dose screen, 48 h (100 = growth as untreated, 0 = no growth, -100 = all killed)
Details: 10 µM unless noted
Method: Growth inhibition of the MDA-MB-435 human Melanoma tumor cell line is measured as a screen for anti-cancer activity. Cells are grown in 96 well plates and exposed to the test compound for 48 hours. Compounds are tested at a single concentration, which is 10^-5 M for most compounds. The reported endpoint is percent growth (GI% or GIPRCNT), where numbers from 0 - 100% represent growth inhibition, and numbers from -100% - 0 represent cell death. […]
About 83,000 compounds went through this panel and 20% of them were active in at least one assay; those are over-represented in the sample as a whole.
Number in %, nothing else.

Query: Quick one: growth of "COc1c(B(O)O)cc(C)cc1-c1nc2ccc3[nH]ncc3c2c2c1CCCC2" ?
Response: 22.5

Query: Next record, please: "COC(=O)[C@H](C)NC(=O)NC(=O)NC(=O)CI"
Response: 63

Query: Same for "CCN(CC)CCNC(=O)c1cn2ncnc(Oc3ccc(NC(=O)Nc4ccc(Cl)c(C(F)(F)F)c4)cc3)c2c1C"
Response: -81.4

Query: Then this compound: "CCc1nnc(NC(=O)c2nnn(-c3ccccc3)c2-c2ccco2)s1"
Response: 97.1

Query: Another compound: COC1=C(C)C(=O)c2c(c(CCCl)c3n2CCC3OC(C)=O)C1=O (stereo unspecified)
Response: -58

Query: Try "S=c1nc(-c2ccccc2)oc(=NC2CCCCC2)n1C1CCCCC1" next.
Response: 67.9

Query: What about "O=c1[nH][n+](-c2ccc(Br)cc2)no1" ?
Response: 22.6

Query: How about "N#Cc1c(-c2ccc(Cl)cc2)nc(NCCO)[nH]c1=O" ?
Response: 106

Query: Quick one: CC(=O)N1CCN(c2ccc(OCC3CO[C@](Cn4ccnc4)(c4ccc(Cl)cc4Cl)O3)cc2)CC1 (stereo partly specified)
Response: 94

Query: For "COc1cc(CCC[P+](c2ccccc2)(c2ccccc2)c2ccccc2)c(OC)c2c1OCO2" then?
Response: 3.48

Query: Subsequent entry: "COc1ccc(/C=N/Nc2cc(=O)[nH]c3ccc(Cl)cc23)cc1"
Response: 43.2

Query: Next compound up: "c1ccc(-c2nc3nonc3nc2-c2ccccc2)cc1"
Response: 43.1

Query: Again, but for "O=C1c2cccc3cccc(c23)C(=O)N1Nc1nc(N2CCOCC2)nc(N2CCN(c3ccccc3)CC2)n1"
Response: -12.6

Query: Same again, this time with "c1ccc(CO[C@H]2CO[C@H]3[C@@H]2OC[C@@H]3Oc2ccc(Nc3ncnc4ccsc34)cc2)cc1"
Response: 83.9

Query: COc1ccc(S(=O)(=O)n2cc(C3OC(c4cc(OC)c(OC)c(OC)c4)=NN3C(C)=O)c3ccccc32)cc1OC (stereo unspecified) ?
Response: 95.4

Query: What do you get for "COc1c(B(O)O)cc(F)cc1-c1nc2ccc3[nH]ncc3c2c2c1CCCC2" ?
Response: 16.4

Query: What do you get for CC1(C)C2CC1C1(/C=N/NC(N)=S)C(C2)C(C#N)(C#N)C1(C#N)C#N (stereo unspecified) ?
Response: 88.6

Query: Can you handle "O=C(/C=C/c1sc(Cl)nc1Cl)c1ccc(Br)cc1" next?
Response: 98.4

Query: Same question for "COc1cc2cc(Oc3ccc(NC(=O)Nc4cc(C(F)(F)F)cc(C(F)(F)F)c4)cc3)c(C)nc2cc1OCCN1CCOCC1" please.
Response: 22.3

Query: // repeat for "NCCCNc1nc2ccc(Cl)cc2c2c(=O)c3cc(F)ccc3sc12" and report
Response: 30.8

Query: Please give the result for "Cc1nc2cnc(N)c(C#Cc3cncc(C(=O)Nc4ccc(CN5CCN(C)CC5)c(C(F)(F)F)c4)c3)c2nc1C" too.
Response: 0.973

Query: Would you kindly repeat that for "COc1ccc2c(c1)nc(NNC(=O)c1cnccn1)c1cccn12" ?
Response: 33.7

Query: Queued: "Cc1nc2ccccc2c(/C=C/c2ccccc2)c1C(=O)/C=C/c1ccc(C(F)(F)F)cc1"
Response: -82.6

Query: Try this compound too: "COc1cc(C(=O)c2cnc(-c3c[nH]c4cccc(C)c34)[nH]2)cc(OC)c1OC"
Response: -43.5

Query: Request: "O=C(CSc1nccc(Nc2ccc(S(=O)(=O)Nc3nccs3)cc2)n1)c1ccc(C(F)(F)F)cc1"
Response: 99

Query: Try "O=c1[nH]c2c(ccc3cnccc32)c2c1CCC2" next.
Response: -60.1

Query: Then "CCOC(=O)c1c2c(n(-c3ccc(C#N)cc3)c1-c1ccccc1)C=CCC2" ?
Response: 95.3

Query: Could you do the same for "O=C(O)c1cn(C2CC2)c2cc(N3CCN(C(=O)Nc4nc(-c5ccc(Cl)cc5)cs4)CC3)c(F)cc2c1=O" , please?
Response: 9.36

Query: Now this one: "CSc1ncccc1C(=O)OCC(=O)Nc1oc(C)c2c(C)n[nH]c(=O)c12"
Response: 107

Query: Also, "COc1ccc(C2=Nn3c(nnc3-c3cc(Cl)cc(Cl)c3Cl)SC2)cc1" please.
Response: -46.7

Query: Query CN1C(=C2C(=O)OC(C)(C)OC2=O)CCC1C(=O)NCc1ccc(Cl)cc1Cl (stereo unspecified) next
Response: 109

All values here come from PubChem BioAssay (NCI).
